In this section we review reported basophils values for a set of substances.
Experiment: Hematology assays in cynomolgus monkeys (Example 45)
Assay type: in vivo
Details: day 36

SUBSTANCE	READOUT_UNIT	basophils
ISIS 416858: MOE gapmer, nucleobases 1275 to 1318 of SEQ ID NO: 1 (Table 8) (antisense ACGGCATTGGTGCACAGTTT; MOE gapmer, wing and gap sizes not given here)	%	0.3
ISIS 416838: MOE gapmer, nucleobases 1018 to 1042 of SEQ ID NO: 1 (Table 6) (antisense GCAACCGGGATGATGAGTGC; MOE gapmer, wing and gap sizes not given here)	%	0.4

* * *

Tested on: Factor 11 protein
Test: Factor 11 protein in monkey plasma by sandwich ELISA (Example 46)
Format: in vivo, cynomolgus monkeys
Details: Day 52, plasma, 25 mg/kg subcutaneously
Strand notation (5' to 3'): a small letter for the sugar, then the base; units joined by * are phosphorothioate-linked, units joined directly phosphodiester-linked; [ ] holds rarer units or linkages, { } end groups; capitals alone tell only the bases. e = 2'-O-(2-methoxyethyl) (MOE); [5mC] = 5-methylcytosine; d = 2'-deoxy (DNA)
Hi! Just check whether Inhibition of Factor 11 protein relative to the PBS control (percentage reduction) is below 30%. Below gives class 1, equal or above gives class 0.

>>> df
                                  substance    label
0  449709 (antisense eG*e[5mC]*eA*e[5mC]*dA*dG*dT*dT*dT*d[5mC]*dT*dG*dG*d[5mC]*eA*eG*eG*e[5mC]) [compound 449709]  class 0
1  445522 (antisense eG*e[5mC]*eA*e[5mC]*eA*dG*dT*dT*dT*d[5mC]*dT*dG*dG*e[5mC]*eA*eG*eG*e[5mC]) [compound 445522]  class 0
2  445531 (antisense eG*eG*e[5mC]*eA*eT*dT*dG*dG*dT*dG*d[5mC]*dA*d[5mC]*eA*eG*eT*eT*eT) [compound 445531]  class 0
3  449711 (antisense eA*e[5mC]*dA*dG*dT*dT*dT*d[5mC]*dT*dG*dG*d[5mC]*eA*eG) [compound 449711]  class 1
4  416850 (antisense TGCACAGTTTCTGGCAGGCC; 5-10-5 gapmer, further chemistry not given here) [compound 416850]  class 0
5  416858 (antisense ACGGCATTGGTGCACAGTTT; 5-10-5 gapmer, further chemistry not given here) [compound 416858]  class 0
6  449710 (antisense e[5mC]*eA*e[5mC]*dA*dG*dT*dT*dT*d[5mC]*dT*dG*dG*d[5mC]*eA*eG*eG) [compound 449710]  class 1
7  449707 (antisense e[5mC]*eA*e[5mC]*eA*dG*dT*dT*dT*d[5mC]*dT*dG*dG*e[5mC]*eA*eG*eG) [compound 449707]  class 1
8  449708 (antisense eA*e[5mC]*eA*dG*dT*dT*dT*d[5mC]*dT*dG*dG*e[5mC]*eA*eG) [compound 449708]  class 1

Data provenance is patent US20230263822A1.
